# Target of assay: GGT isolated from human kidney (Homo sapiens)
# Construct: GGT was isolated from human kidney; tissue National Disease Research Interchange, Philadelphia, PA; host or cells: human kidney, Triton X-100 extract of microsomes
# Sequence (P19440 1-380 limits assumed): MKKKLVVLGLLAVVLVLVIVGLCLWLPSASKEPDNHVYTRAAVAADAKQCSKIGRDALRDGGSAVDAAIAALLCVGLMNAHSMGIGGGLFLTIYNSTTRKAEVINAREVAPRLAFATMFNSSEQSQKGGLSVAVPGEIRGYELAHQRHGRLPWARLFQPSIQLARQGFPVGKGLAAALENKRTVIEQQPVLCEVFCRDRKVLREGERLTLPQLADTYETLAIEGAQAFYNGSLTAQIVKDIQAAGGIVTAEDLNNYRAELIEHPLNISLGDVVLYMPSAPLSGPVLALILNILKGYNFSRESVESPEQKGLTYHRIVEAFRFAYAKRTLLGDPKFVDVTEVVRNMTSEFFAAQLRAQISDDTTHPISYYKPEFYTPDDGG
# Sequence (P19440 381-569 limits assumed): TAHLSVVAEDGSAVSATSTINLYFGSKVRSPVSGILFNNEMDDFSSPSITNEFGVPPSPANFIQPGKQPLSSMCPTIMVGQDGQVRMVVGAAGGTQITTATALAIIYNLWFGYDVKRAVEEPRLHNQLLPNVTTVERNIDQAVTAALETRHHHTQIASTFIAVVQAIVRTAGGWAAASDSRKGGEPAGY
# Measurement description: GGT transpeptidation kinetic assay (GpNA / glycyl-glycine) with GGT isolated from human kidney
# Assay type: biochemical
# Test settings: appKi obtained by varying GpNA, glygly fixed at 40 mM; uncompetitive; read-out: Inhibition of Transpeptidation (Alpha Ki)
# Description: An assay method was developed to screen for inhibitors of GGT. The assays were conducted in 96-well plates. The final volume in each well was 100 μL. The assay buffer contained: 100 mM Na2HPO4 pH 7.4, with 3.2 mM KCI, 1.8 mM KH2PO4, and 27.5 mM NaCl. […] The concentrations of the substrate GpNA and the acceptor Gly-Gly were varied as indicated. […] The reaction was monitored as described for the high throughput screening. […]
Measure name: Ki

Query :: // returns reported Ki for input COc1ccc(S(=O)(=O)Nc2nnc(Cc3ccc(OC)c(OC)c3)s2)cc1
Result :: 1110 µM

Query :: // returns reported Ki for input COc1ccc(Cc2nnc(NS(=O)(=O)c3ccccc3)s2)cc1
Result :: 73.8 µM

Query :: // returns reported Ki for input O=S(=O)(Nc1nnc(Cc2ccccc2)s1)c1ccc(Cl)cc1
Result :: 75.9 µM

Query :: // returns reported Ki for input COc1ccc(Cc2nnc(NS(=O)(=O)c3ccc([N+](=O)[O-])cc3)s2)cc1
Result :: 114 µM
